# Read-out: CD40, CD40 (gene 958)
# EXPERIMENT_NOTES: BSK_SAg_CD40: BioMAP Diversity Plus: SAg Assay for CD40 Biomarker Activity (AID 2283088)
# EXPERIMENTAL_PARAMETERS: primary human HUVEC with PBMC; actives raise or lower the signal
Activity calls are given as the source filed them. The calls were made as follows: active = hit-call score of the fitted dose curve at least 0.9, where 1 is the maximum; inactive = score below 0.9.
Outcome codes: TRUE for active, FALSE for inactive

COMPOUND_STRING: C[C@@H]1CCN(C(=O)[C@H](CCCN=C(N)N)NS(=O)(=O)c2cccc3c2NC[C@H](C)C3)[C@@H](C(=O)O)C1
ASSIGNED_LABEL: FALSE

COMPOUND_STRING: CCOC(=O)C(C#N)=C(c1ccccc1)c1ccccc1
ASSIGNED_LABEL: FALSE

COMPOUND_STRING: CC(=O)c1c(C)c([N+](=O)[O-])c(C(C)(C)C)c([N+](=O)[O-])c1C
ASSIGNED_LABEL: FALSE

COMPOUND_STRING: CSCCC=O
ASSIGNED_LABEL: FALSE

COMPOUND_STRING: O=C(Nc1ccc2c(O)c(N=Nc3ccc(N=Nc4ccc(S(=O)(=O)O)cc4)cc3)c(S(=O)(=O)O)cc2c1)c1ccccc1
ASSIGNED_LABEL: FALSE

COMPOUND_STRING: COc1cc(Cl)c(OC)cc1N
ASSIGNED_LABEL: FALSE

COMPOUND_STRING: C=C(C)C(=O)OCCOCCOCCOCCOC(=O)C(=C)C
ASSIGNED_LABEL: FALSE

COMPOUND_STRING: CC(C)(C)CC(C)(C)c1ccc(OCCOCC[N+](C)(C)Cc2ccccc2)cc1
ASSIGNED_LABEL: TRUE

COMPOUND_STRING: CS(=O)(=O)c1ccc(C2=C(c3ccccc3)C(=O)OC2)cc1
ASSIGNED_LABEL: FALSE

COMPOUND_STRING: C=C(C)C(=O)OCC(CC)(COC(=O)C(=C)C)COC(=O)C(=C)C
ASSIGNED_LABEL: FALSE

COMPOUND_STRING: O=CN1CCOCC1
ASSIGNED_LABEL: FALSE

COMPOUND_STRING: COc1ccc(CCN2CCC(Nc3nc4ccccc4n3Cc3ccc(F)cc3)CC2)cc1
ASSIGNED_LABEL: FALSE

COMPOUND_STRING: CCCCOC(=O)CCCCCCCC(=O)OCCCC
ASSIGNED_LABEL: FALSE

COMPOUND_STRING: CC(=O)Nc1ccc(C(=O)CCl)cc1
ASSIGNED_LABEL: TRUE

###

# Read-out: Interleukin-8 (IL8), CXCL8 (gene 3576)
# EXPERIMENT_NOTES: BSK_hDFCGF_IL8: BioMAP Diversity Plus: hDFCGF Assay for Interleukin-8 (IL8) Biomarker Activity (AID 2283058)
# EXPERIMENTAL_PARAMETERS: primary human foreskin fibroblasts; actives raise or lower the signal
# Method: BSK_hDFCGF is a cell-based, multiplexed-readout assay that uses foreskin fibroblast, a human skin primary cell, with measurements taken at 24 hours after chemical dosing in a 96-well plate.BSK_hDFCGF_IL8 is an assay component measured in the BSK_hDFCGF assay. It measures IL-8 antibody related to regulation of gene expression using ELISA technology.Data from the assay component BSK_hDFCGF_IL8 was analyzed into 1 assay endpoint. […]
Activity calls are given as the source filed them. How the source made its calls: active means hit-call score of the fitted dose curve at least 0.9, where 1 is the maximum; inactive means score below 0.9.
Outcome codes: 1 (active), 0 (inactive)

COMPOUND: C1=CC2C3C=CC(C3)C2C1 (stereo not drawn)
ASSIGNED_LABEL: 0

COMPOUND: CS(=O)(=O)c1ccc(C2=C(c3ccccc3)C(=O)OC2)cc1
ASSIGNED_LABEL: 0

COMPOUND: CCOC(=O)C(C#N)=C(c1ccccc1)c1ccccc1
ASSIGNED_LABEL: 0

COMPOUND: C=C(C)[C@H]1CC=C(C)C(=O)C1
ASSIGNED_LABEL: 0

COMPOUND: CSCCC=O
ASSIGNED_LABEL: 0

COMPOUND: CN(C)C(=O)Nc1ccc(Oc2ccc(Cl)cc2)cc1
ASSIGNED_LABEL: 0

COMPOUND: CC=Cc1ccc(OCC)c(O)c1
ASSIGNED_LABEL: 0

COMPOUND: C=C(C)C(=O)OCCOCCOCCOCCOC(=O)C(=C)C
ASSIGNED_LABEL: 0

COMPOUND: O=C1OC2(c3ccccc31)c1ccc(O)c(Br)c1Oc1c2ccc(O)c1Br
ASSIGNED_LABEL: 0

COMPOUND: COc1cc(Cl)c(OC)cc1N
ASSIGNED_LABEL: 0

COMPOUND: CN(c1nccc(=O)[nH]1)C1CCN(c2nc3ccccc3n2Cc2ccc(F)cc2)CC1
ASSIGNED_LABEL: 0

COMPOUND: CS(=O)(=O)OCCCCOS(C)(=O)=O
ASSIGNED_LABEL: 0

COMPOUND: CC(CN=Cc1ccccc1O)N=Cc1ccccc1O (stereo not drawn)
ASSIGNED_LABEL: 0

COMPOUND: Clc1cc(Cl)c(-c2c(Cl)c(Cl)cc(Cl)c2Cl)cc1Cl
ASSIGNED_LABEL: 1

COMPOUND: CC(C=O)Cc1ccc(C(C)(C)C)cc1 (stereo not drawn)
ASSIGNED_LABEL: 0

COMPOUND: O=C1c2ccccc2C(=O)c2c(O)ccc(O)c21
ASSIGNED_LABEL: 0

COMPOUND: O=C1OC[C@H](Cc2cccc(O)c2)[C@H]1Cc1cccc(O)c1
ASSIGNED_LABEL: 0

COMPOUND: CC1(C)C2=CCCC(C)(C)[C@]23CC[C@H]1C3
ASSIGNED_LABEL: 0

COMPOUND: c1ccc2cc(Nc3ccc(Nc4ccc5ccccc5c4)cc3)ccc2c1
ASSIGNED_LABEL: 0

COMPOUND: Oc1c(Cl)cc(Cl)c(Cl)c1Cc1c(O)c(Cl)cc(Cl)c1Cl
ASSIGNED_LABEL: 1

COMPOUND: CCCCN(CCCC)C(=O)N(CCCC)CCCC
ASSIGNED_LABEL: 0

COMPOUND: CC(C)(C)CC(C)(C)c1ccc(OCCOCC[N+](C)(C)Cc2ccccc2)cc1
ASSIGNED_LABEL: 1

COMPOUND: C=CC(C)(O)CCC=C(C)C (stereo not drawn)
ASSIGNED_LABEL: 0

###

# EXPERIMENT_NOTES: ATG_VDRE_CIS: Attagene CIS-FACTORIAL HepG2 Assay for human Vitamin D Receptor Element (VDRE) (AID 2282968)
# EXPERIMENTAL_PARAMETERS: HepG2 VDRE cis-reporter transcription, actives raise or lower the signal
# Procedure: ATG_CIS is a cell-based, multiplexed-readout assay that uses HepG2, a human liver cell line, with measurements taken at 24 hours after chemical dosing in a 24-well plate.ATG_VDRE_CIS is one of 52 assay component(s) measured or calculated from the ATG_CIS assay. […] This assay endpoint, ATG_VDRE_CIS, was analyzed with bidirectional fitting relative to DMSO as the negative control and baseline of activity. […]
Active and inactive are the calls of the source. Rule for the calls: active = hit-call score of the fitted dose curve at least 0.9, where 1 is the maximum; inactive = score below 0.9.
Outcome codes: active, inactive

COMPOUND: CC1CCC(C(C)C)C(O)C1 (stereo not given)
ASSIGNED_LABEL: inactive

COMPOUND: C=CCN(CC=C)CC=C
ASSIGNED_LABEL: inactive

COMPOUND: CC(C)(CO)[C@@H](O)C(=O)NCCC(=O)O
ASSIGNED_LABEL: inactive

COMPOUND: CC1=C(Br)C(=O)C(Br)=C/C1=C(/c1ccccc1S(=O)(=O)O)c1cc(Br)c(O)c(Br)c1C
ASSIGNED_LABEL: active

COMPOUND: CCOCCOCCOCC
ASSIGNED_LABEL: inactive

COMPOUND: COCCOCCOCCO
ASSIGNED_LABEL: inactive

COMPOUND: CN(C)CCOC(C)(c1ccccc1)c1ccccn1 (stereo not given)
ASSIGNED_LABEL: inactive

COMPOUND: Oc1c(Cl)cc(Cl)c(Cl)c1Cc1c(O)c(Cl)cc(Cl)c1Cl
ASSIGNED_LABEL: active

COMPOUND: c1ccc2[nH]cnc2c1
ASSIGNED_LABEL: inactive

COMPOUND: OCc1cccc(Oc2ccccc2)c1
ASSIGNED_LABEL: inactive

COMPOUND: CCCCCCCCCC(C)C=O (stereo not given)
ASSIGNED_LABEL: inactive

COMPOUND: NC1CCCCC1N (stereo not given)
ASSIGNED_LABEL: inactive

COMPOUND: CC(=O)O[C@H]1C[C@@H]2CC[C@@]1(C)C2(C)C
ASSIGNED_LABEL: inactive

COMPOUND: [Cl][Au]([Cl])[Cl]
ASSIGNED_LABEL: inactive

COMPOUND: CCOc1ccccc1O
ASSIGNED_LABEL: inactive
